// pIC50 lookup, one value per entry
- Measured target: UniProtKB P48736
- Sequence (P48736 whole entry): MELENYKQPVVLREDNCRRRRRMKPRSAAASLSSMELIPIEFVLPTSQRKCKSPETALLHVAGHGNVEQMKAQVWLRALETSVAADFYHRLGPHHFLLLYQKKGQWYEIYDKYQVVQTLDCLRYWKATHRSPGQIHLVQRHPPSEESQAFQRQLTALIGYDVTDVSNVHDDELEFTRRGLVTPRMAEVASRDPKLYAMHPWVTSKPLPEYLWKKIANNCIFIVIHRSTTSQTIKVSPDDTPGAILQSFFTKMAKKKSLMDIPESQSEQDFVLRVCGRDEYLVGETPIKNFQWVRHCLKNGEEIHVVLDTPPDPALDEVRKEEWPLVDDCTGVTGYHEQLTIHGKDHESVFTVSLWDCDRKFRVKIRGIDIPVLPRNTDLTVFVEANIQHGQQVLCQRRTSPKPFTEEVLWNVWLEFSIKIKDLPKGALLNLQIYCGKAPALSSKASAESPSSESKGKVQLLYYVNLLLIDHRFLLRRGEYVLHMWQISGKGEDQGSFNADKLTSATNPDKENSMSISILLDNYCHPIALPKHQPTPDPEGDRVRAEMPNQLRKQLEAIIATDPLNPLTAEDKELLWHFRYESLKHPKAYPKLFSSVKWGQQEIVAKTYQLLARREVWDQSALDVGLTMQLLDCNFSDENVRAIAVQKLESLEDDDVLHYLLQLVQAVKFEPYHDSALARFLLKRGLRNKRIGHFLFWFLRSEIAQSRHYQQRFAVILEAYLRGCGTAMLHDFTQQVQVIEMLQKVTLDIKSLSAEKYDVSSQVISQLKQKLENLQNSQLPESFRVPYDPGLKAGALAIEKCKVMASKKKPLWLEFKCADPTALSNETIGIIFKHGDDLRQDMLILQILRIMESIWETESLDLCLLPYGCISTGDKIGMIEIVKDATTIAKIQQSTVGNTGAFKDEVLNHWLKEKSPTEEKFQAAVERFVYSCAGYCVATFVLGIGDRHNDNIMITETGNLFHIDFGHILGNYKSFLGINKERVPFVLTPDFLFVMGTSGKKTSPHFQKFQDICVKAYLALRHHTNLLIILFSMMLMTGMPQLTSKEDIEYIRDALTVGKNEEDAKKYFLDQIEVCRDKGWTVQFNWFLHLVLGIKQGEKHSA
- Experiment: In vitro determination of the PI3K enzyme inhibitory activity in the cell free assay (ADP-Glo Kinase Assay), PI3Kγ
- Measurement setup: ATP 30 μM, read-out: PI3K gamma inhibition
pIC50: −log10 of the molar value.

INSERT INTO assay_data (molecule, measured_target, quantity_kind, reading) VALUES
  ('CC(Nc1ncnc(N)c1C#N)c1cc2ccccn2c1-c1cccs1 (centres unmarked)', 'UniProtKB P48736', 'pIC50', '< 6.00'),
  ('CC(c1cc2ccccn2c1-c1ccc(CN2CCN(C)CC2)cn1)n1nc(-c2cc(O)cc(F)c2)c2c(N)ncnc21 (centres unmarked)', 'UniProtKB P48736', 'pIC50', '< 6.00'),
  ('CC(Nc1ncnc(N)c1C(N)=O)c1cc2ccccn2c1-c1ccccn1 (centres unmarked)', 'UniProtKB P48736', 'pIC50', '< 6.00'),
  ('CC(c1cc2ccccn2c1CN1CC2(CCN(C)CC2)C1)n1nc(-c2cc(O)cc(F)c2)c2c(N)ncnc21 (centres unmarked)', 'UniProtKB P48736', 'pIC50', '6.00 to 8.00'),
  ('Nc1ncnc2c1c(-c1cc(O)cc(F)c1)nn2Cc1cc2cccnn2c1-c1ccccn1', 'UniProtKB P48736', 'pIC50', '6.00 to 8.00'),
  ('CC(c1cc2ccccn2c1-c1ccn(CCN2CCN(C)CC2)n1)n1nc(-c2cc(O)cc(F)c2)c2c(N)ncnc21 (centres unmarked)', 'UniProtKB P48736', 'pIC50', '6.00 to 8.00');

Recorded pIC50 for CC(c1cc2ccccn2c1-c1ccn(CCN2CCOCC2)c(=O)c1)n1nc(-c2cc(O)cc(F)c2)c2c(N)ncnc21 (centres unmarked) , please?
6.00 to 8.00

Thanks! And "Cc1ccccc1-c1c(Cn2cnc(N)c3ncnc2-3)cc2ccccn12" ?
< 6.00
